tgt: BRD4 bromodomains (Homo sapiens, UniProt O60885)
Construct: fused on or other part: T7 phage capsid protein (phage-display fusion; the phage DNA is read out by qPCR)
experimental-details: BROMOscan bromodomain competition binding assay (DiscoveRx)
condition-info: Kd from 11 compound concentrations ranging from 0 to 10 μM, read-out: BROMOscan Relative Activity
Here the recorded Kd is given for each entry.

The cases that follow already have their Kd on record.
Cc1noc(C)c1-c1ccc2nc(-c3csc(CO)c3)nc(N3CCOC[C@@H]3c3ccccc3)c2c1 = 500 to 5000 nM
Cn1cc(-c2ccc3nc(Cl)nc(NCc4cncc(Cl)c4)c3c2)ccc1=O = > 5000 nM
Cc1noc(C)c1-c1ccc2nc(C(=O)NC3CCOCC3)nc(NCc3cccc(Cl)c3)c2c1 = < 500 nM
CC(=O)N1CCC(NC(=O)c2nc(NCc3cccc(Cl)c3)c3cc(-c4c(C)noc4C)ccc3n2)CC1 = < 500 nM
Cc1noc(C)c1-c1ccc2nc(C(=O)NC3CN(C)C3)nc(NCc3cncc(Cl)c3)c2c1 = < 500 nM
Cc1noc(C)c1-c1ccc2nc(N3CCN(CC(=O)N(C)C)CC3)nc(NCc3cncc(Cl)c3)c2c1 = < 500 nM
Cn1cc(-c2ccc3nc(N4CCN(CCO)CC4)nc(NCc4cccc(Cl)c4)c3c2)ccc1=O = < 500 nM
CNC(=O)Cn1cc(-c2nc(NCc3cncc(Cl)c3)c3cc(-c4ccc(=O)n(C)c4)ccc3n2)cn1 = < 500 nM

Query (molecule): "Cc1noc(C)c1-c1ccc2nc(-c3cnn(CC#N)c3)nc(NCc3cccc(Cl)c3)c2c1" ; field requested: Kd
< 500 nM

Query (molecule): "Cc1cc(NCc2cccc(Cl)c2)c2cc(-c3c(C)noc3C)ccc2n1" ; field requested: Kd
500 to 5000 nM

Query (molecule): "Cc1noc(C)c1-c1ccc2nc(C(=O)NCC3CN(C)C3)nc(NCc3cncc(Cl)c3)c2c1" ; field requested: Kd
< 500 nM

Query (molecule): "Cc1noc(C)c1-c1ccc2nc(N3CCN(CCN(C)C)CC3)nc(NCCc3ccc(Cl)cc3)c2c1" ; field requested: Kd
500 to 5000 nM

Query (molecule): "Cn1cc(-c2ccc3nc(N4CCN(C(=O)CO)CC4)nc(NCc4cccc(Cl)c4)c3c2)ccc1=O" ; field requested: Kd
< 500 nM
